- Test system: Wolbachia pipientis
- assay: Anti-Wolbachia Cell-Based Screen
- Format: functional
- Set-up: scale not given: in the data most compounds retested in dose-response had high values
- settings: 5 µM
Hit rate of the full screen: of about 48,000 compounds, about 13,000 (27%) showed an effect of 50% or more. Some of the results follow.
measured endpoint: Percent Effect (%)
Please respond with the number in % and leave the unit unwritten.

Please report the recorded Percent Effect for Cc1cc(N(C)C)nc(C2(C)CCCN2CC(N)=O)n1 (stereo not drawn) .
87.15

Please report the recorded Percent Effect for Cc1cc(C(F)(F)F)nc(C2(C)CCCN2CC(N)=O)n1 (stereo not drawn) .
81.01

Please report the recorded Percent Effect for O=C(CN1CCOC(Cn2cccn2)C1)Nc1nncs1 (stereo not drawn) .
-3.509

Please report the recorded Percent Effect for CCc1nnc2n1CCN(c1nc(C)cc(N(C)C)n1)C2 .
1.842

Please report the recorded Percent Effect for COc1ccc(CNCc2ccnc(N3CCOCC3)c2)c(OC)c1 .
-1.923

Please report the recorded Percent Effect for CC(C)NC(=O)N1CCC(n2ccc(C(F)(F)F)n2)CC1 .
-15.91

Please report the recorded Percent Effect for O=C(NCCn1ccnc1)N1CCCC1c1ccsc1 (stereo not drawn) .
8.592

Please report the recorded Percent Effect for Cc1ccc(CNC(=O)N2CCN(Cc3ccsc3)CC2)n1C .
2.843

Please report the recorded Percent Effect for CCN(C)c1ncnc2c1CCN(C(=O)N1CCCC1)CC2.O=C(O)C(F)(F)F .
-2.138

Please report the recorded Percent Effect for CN(Cc1nc(C(F)(F)F)cs1)C(=O)CCc1cccnc1 .
99.2

Please report the recorded Percent Effect for CCCOCC(=O)N1CCc2nc(NC)nc(C(=O)N3CCCC3)c2C1 .
106.3

Please report the recorded Percent Effect for COc1c(C)cc(CNCc2ccnc(N3CCOCC3)c2)cc1C.Cl .
93.56

Please report the recorded Percent Effect for CC(C)Nc1nc2c(c(NC3CC3)n1)CN(C(=O)c1ccnnc1)CC2 .
10.08

Please report the recorded Percent Effect for Cn1ccc(N2CCCC(NC(=O)c3ccc(Cl)o3)C2=O)n1 (stereo not drawn) .
-25.47

Please report the recorded Percent Effect for COc1cccc(CNCc2ccnc(N3CCOCC3)c2)c1OC .
119.8

Please report the recorded Percent Effect for Cc1cc(C(=O)NCCSC2CCCC2)no1 .
-0.7527

Please report the recorded Percent Effect for Cc1nc(N2CCCC2)nc2c1CCN(C(=O)CN(C)C)CC2.O=C(O)C(F)(F)F .
-8.605

Please report the recorded Percent Effect for Cc1cc(-c2cnn(CCNC(=O)C3CC3)c2C2CC2)on1 .
8.757

Please report the recorded Percent Effect for Cc1cc(-c2cnn(CCNC(=O)c3cc[nH]n3)c2C2CC2)on1 .
115.4

Please report the recorded Percent Effect for O=C(c1cnc(-c2cnccn2)s1)N1CCCC1Cn1cccn1 (stereo not drawn) .
93.62

Please report the recorded Percent Effect for CC(=O)N1CCC(n2ccc(-c3cnc(N4CCOCC4)nc3)n2)CC1 .
94.2

Please report the recorded Percent Effect for Cl.c1cc(CNCc2ccnc(N3CCOCC3)c2)c2c(c1)OCO2 .
16.56

Please report the recorded Percent Effect for CC(C)NC(=O)CN1CCC2(CC1)OCCO2 .
-0.8474

Please report the recorded Percent Effect for CC(Cn1ccnc1)NC(=O)N1CCN(Cc2cccnc2)CC1 (stereo not drawn) .
-2.682

Please report the recorded Percent Effect for CNc1nc2c(c(C(=O)N3CCCC3)n1)CN(C(=O)C1CCCC1)CC2 .
99.86

Please report the recorded Percent Effect for COCCN(C)C[C@@H]1CN(C(=O)c2ccc(O)c(Cl)c2)C[C@@H]1CO .
127.9

Please report the recorded Percent Effect for COCCN(C)C[C@@H]1CN(C(=O)c2ccc(C)c(Cl)c2)C[C@@H]1CO .
113.4

Please report the recorded Percent Effect for Cc1nc(CN2CCN(C(=O)CCc3cccnc3)CC2)no1 .
-0.7807

Please report the recorded Percent Effect for CC(C)Nc1nc2c(c(NC3CC3)n1)CN(C(=O)c1ccsc1)CC2 .
4.633

Please report the recorded Percent Effect for CN(CCc1ccccn1)C(=O)Nc1cc(C(F)(F)F)c[nH]c1=O .
14.36

Please report the recorded Percent Effect for COc1cc(CNCc2ccnc(N3CCOCC3)c2)cc(OC)c1 .
97.96

Please report the recorded Percent Effect for Cc1nc(N)nc(C)c1Cc1nc(C2CC2)n[nH]1 .
-31.49

Please report the recorded Percent Effect for CCCn1nc(C)c(CNC(=O)c2snnc2C)c1C .
-13.49

Please report the recorded Percent Effect for CCN(C)CC(=O)N1CCc2nc(NC)nc(C(=O)N3CCCC3)c2C1 .
92.7

Please report the recorded Percent Effect for CCc1nc(CN2CCCN(C(=O)CCSC)CC2)cs1 .
-7.739

Please report the recorded Percent Effect for CS(=O)(=O)N1CC(c2nc[nH]n2)c2cc(C(=O)NC3CC3)ccc21 (stereo not drawn) .
-11.05

Please report the recorded Percent Effect for COCCc1noc(-c2cn(Cc3ccccc3C)nn2)n1 .
-12.89

Please report the recorded Percent Effect for CCCc1nc(C)cc(N2CCC3(CCC(=O)N(CC(N)=O)C3)CC2)n1 .
1.453

Please report the recorded Percent Effect for O=C(NCCn1ccnc1)N1CCN(Cc2ccsc2)CC1 .
102.5

Please report the recorded Percent Effect for CC1CN(C(=O)NCCn2ccnc2)CCO1 (stereo not drawn) .
-11.62

Please report the recorded Percent Effect for O=C(NCCn1ccnc1)N1CCN(Cc2cccnc2)CC1 .
109.3

Please report the recorded Percent Effect for CN(Cc1cc(Br)cn1C)C(=O)Cc1cccnc1 .
-0.2173

Please report the recorded Percent Effect for COc1cc(CNCc2ccnc(N3CCOCC3)c2)cc(Cl)c1OC .
-1.055

Please report the recorded Percent Effect for CCC(OC)C(=O)N1CCc2nc(NC)nc(C(=O)N3CCCC3)c2C1 (stereo not drawn) .
0.1298

Please report the recorded Percent Effect for O=C1NCCN(C(=O)c2cn3ccsc3n2)C1Cc1ccccc1 (stereo not drawn) .
-8.073

Please report the recorded Percent Effect for Cc1cc(C(F)(F)F)cc(N2CCC3(CCC(=O)N(CCO)C3)CC2)n1 .
8.685

Please report the recorded Percent Effect for Cc1cc(-c2cnn(CCNC(=O)c3cccnc3)c2C2CC2)on1.Cl .
-6.458

Please report the recorded Percent Effect for CC(=O)N1CCC(c2nnc3ccc(C(=O)NCC(C)C)cn23)C1 (stereo not drawn) .
-18.5
